Cited source: paper PMC6858373

EXPERIMENTAL TARGET: full-length P. pyralis luciferase (Photinus pyralis, UniProt P08659, K549A/L550V/N119G/N50D/S548I)
Sequence (P08659 whole entry N50D/N119G/S548I/K549A/L550V, looked up): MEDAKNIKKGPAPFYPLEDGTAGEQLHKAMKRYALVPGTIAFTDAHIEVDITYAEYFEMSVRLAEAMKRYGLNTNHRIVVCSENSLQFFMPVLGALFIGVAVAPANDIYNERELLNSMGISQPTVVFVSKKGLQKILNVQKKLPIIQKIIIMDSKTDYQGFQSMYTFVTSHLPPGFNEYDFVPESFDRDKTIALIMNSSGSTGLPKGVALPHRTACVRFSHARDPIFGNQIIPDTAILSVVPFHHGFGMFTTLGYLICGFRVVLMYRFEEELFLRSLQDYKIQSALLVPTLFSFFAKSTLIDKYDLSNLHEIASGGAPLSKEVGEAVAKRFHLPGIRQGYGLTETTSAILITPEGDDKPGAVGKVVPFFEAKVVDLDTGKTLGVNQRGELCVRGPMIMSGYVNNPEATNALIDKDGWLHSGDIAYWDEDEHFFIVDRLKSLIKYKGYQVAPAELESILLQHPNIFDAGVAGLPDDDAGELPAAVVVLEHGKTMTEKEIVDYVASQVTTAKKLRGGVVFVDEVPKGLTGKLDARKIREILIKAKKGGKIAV
Assay type: cell-based
RECORDED CONDITIONS: CC_NCI screening; full-length luciferase counter-screen; normalized to on-plate 0.3% DMSO controls
Structures can show the parent of a compound that is named as a salt.
Lab note: class by Luciferase Assay Z-score, see lower bin: < -4; middle bin: ≥ -4 and < -0.6; upper bin: ≥ -0.6

>  <COMPOUND>
CC(/C=C/C(=O)NO)=C\[C@@H](C)C(=O)c1ccc(N(C)C)cc1

>  <ASSIGNED CLASS>
lower bin

$$$$
>  <COMPOUND>
COC1=C2C[C@@H](C)C[C@H](OC)[C@H](O)[C@@H](C)/C=C(\C)[C@H](OC(N)=O)[C@@H](OC)/C=C\C=C(/C)C(=O)NC(=CC1=O)C2=O

>  <ASSIGNED CLASS>
upper bin

$$$$
>  <COMPOUND>
Cc1ccc(Nc2nccc(N(C)c3ccc4c(C)n(C)nc4c3)n2)cc1S(N)(=O)=O

>  <ASSIGNED CLASS>
upper bin

$$$$
>  <COMPOUND>
O=C1CCC(N2C(=O)c3ccccc3C2=O)C(=O)N1 (stereo not drawn) [Thalidomide]

>  <ASSIGNED CLASS>
upper bin

$$$$
>  <COMPOUND>
Cc1ccc(NC(=O)c2ccc(CN3CCN(C)CC3)cc2)cc1Nc1nc(-c2cccnc2)cs1

>  <ASSIGNED CLASS>
lower bin

$$$$
>  <COMPOUND>
Cc1c(NC(=O)OC[C@@H]2COCCN2)cn2ncnc(Nc3ccc4c(cnn4Cc4cccc(F)c4)c3)c12

>  <ASSIGNED CLASS>
middle bin

$$$$
>  <COMPOUND>
Cc1[nH]c(/C=C2\C(=O)Nc3ccc(S(=O)(=O)N(C)c4cccc(Cl)c4)cc32)c(C)c1C(=O)N1CCN(C)CC1

>  <ASSIGNED CLASS>
middle bin

$$$$
>  <COMPOUND>
Cc1cc(Nc2ncc3cc(-c4c(Cl)cccc4Cl)c(=O)n(C)c3n2)ccc1F

>  <ASSIGNED CLASS>
upper bin

$$$$
>  <COMPOUND>
O=C1c2c(O)ccc(O)c2C(=O)c2c(NCCNCCO)ccc(NCCNCCO)c21

>  <ASSIGNED CLASS>
lower bin

$$$$
>  <COMPOUND>
COc1cc2c(N3CCN(C(=O)Nc4ccc(OC(C)C)cc4)CC3)ncnc2cc1OCCCN1CCCCC1

>  <ASSIGNED CLASS>
middle bin

$$$$
>  <COMPOUND>
COc1cc2nccc(Oc3ccc(NC(=O)C4(C(=O)Nc5ccc(F)cc5)CC4)cc3)c2cc1OC [Cabozantinib]

>  <ASSIGNED CLASS>
lower bin

$$$$
>  <COMPOUND>
Oc1ccc(-c2nc(-c3ccncc3)c(-c3ccc(F)cc3)[nH]2)cc1

>  <ASSIGNED CLASS>
middle bin

$$$$
>  <COMPOUND>
CN(C)Cc1c(C(=O)NCCOc2ccc(C(=O)NO)cc2)oc2ccccc12

>  <ASSIGNED CLASS>
middle bin

$$$$
>  <COMPOUND>
COc1cccc2c1C(=O)c1c(O)c3c(c(O)c1C2=O)C[C@@](O)(C(C)=O)C[C@@H]3O[C@H]1C[C@H](N)[C@H](O)[C@H](C)O1 [Daunorubicin hydrochloride]

>  <ASSIGNED CLASS>
lower bin

$$$$
>  <COMPOUND>
CCN(CC)CCNC(=O)c1c(C)[nH]c(/C=C2\C(=O)Nc3ccc(F)cc32)c1C

>  <ASSIGNED CLASS>
middle bin

$$$$

###

EXPERIMENTAL TARGET: FGF14:Nav1.6 C-tail complex (Homo sapiens, UniProt Q92915+Q9UQD0)
Construct: polymerase chain reaction (PCR) amplification of the FGF14 open reading frame (nt 1–855); C-terminal fragment of Nav1.6 (amino acids 1763–1976) fused with CD4ΔC-tail (amino acids 1–395); expressed in transfected cells
Sequence (Q92915 1-252 isoform Q92915-2): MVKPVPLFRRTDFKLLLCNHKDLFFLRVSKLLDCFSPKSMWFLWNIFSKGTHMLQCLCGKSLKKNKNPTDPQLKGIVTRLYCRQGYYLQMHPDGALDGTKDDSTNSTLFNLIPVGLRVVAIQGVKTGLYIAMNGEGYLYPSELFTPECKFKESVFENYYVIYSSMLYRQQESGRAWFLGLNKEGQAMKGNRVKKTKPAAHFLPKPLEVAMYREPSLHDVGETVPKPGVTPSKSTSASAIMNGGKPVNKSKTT
Sequence (Q9UQD0 1763-1976 limits assumed): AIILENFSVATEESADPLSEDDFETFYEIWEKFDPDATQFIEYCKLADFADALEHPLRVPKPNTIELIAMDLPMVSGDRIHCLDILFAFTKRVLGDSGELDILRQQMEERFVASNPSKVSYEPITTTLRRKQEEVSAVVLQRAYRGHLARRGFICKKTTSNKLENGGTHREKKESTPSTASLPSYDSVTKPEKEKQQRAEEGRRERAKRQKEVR
PROCEDURE SUMMARY: Split-luciferase complementation assay (LCA) in Clone V double stable HEK293 cells
Assay type: cell-based
RECORDED CONDITIONS: CC_NCI screening, biological replicate Set 2; normalized to on-plate 0.3% DMSO controls
Quick reference for Split Luciferase Assay Z-score Set 2 among some compounds
MEASUREMENT KIND: Split Luciferase Assay Z-score Set 2

>  <SMILES INPUT>
CN(C)/N=N/c1[nH]cnc1C(N)=O

>  <EXPERIMENTAL TARGET>
FGF14:Nav1.6 C-tail complex (Homo sapiens, UniProt Q92915+Q9UQD0)

>  <MEASUREMENT KIND>
Split Luciferase Assay Z-score Set 2

>  <NUMERIC RESULT>
2.70

$$$$
>  <SMILES INPUT>
CO[C@H]1C[C@@H]2CC[C@@H](C)[C@@](O)(O2)C(=O)C(=O)N2CCCC[C@H]2C(=O)O[C@H]([C@H](C)C[C@@H]2CC[C@@H](O)[C@H](OC)C2)CC(=O)[C@H](C)/C=C(\C)[C@@H](O)[C@@H](OC)C(=O)[C@H](C)C[C@H](C)/C=C/C=C/C=C/1C

>  <EXPERIMENTAL TARGET>
FGF14:Nav1.6 C-tail complex (Homo sapiens, UniProt Q92915+Q9UQD0)

>  <MEASUREMENT KIND>
Split Luciferase Assay Z-score Set 2

>  <NUMERIC RESULT>
0.41

$$$$
>  <SMILES INPUT>
CO[C@@]12[C@H](COC(N)=O)C3=C(C(=O)C(C)=C(N)C3=O)N1C[C@@H]1N[C@@H]12

>  <EXPERIMENTAL TARGET>
FGF14:Nav1.6 C-tail complex (Homo sapiens, UniProt Q92915+Q9UQD0)

>  <MEASUREMENT KIND>
Split Luciferase Assay Z-score Set 2

>  <NUMERIC RESULT>
-0.01

$$$$

###

EXPERIMENTAL TARGET: FGF14:Nav1.6 C-tail complex (Homo sapiens, UniProt Q92915+Q9UQD0)
Construct: polymerase chain reaction (PCR) amplification of the FGF14 open reading frame (nt 1–855); C-terminal fragment of Nav1.6 (amino acids 1763–1976) fused with CD4ΔC-tail (amino acids 1–395); expressed in transfected cells
PROCEDURE SUMMARY: Split-luciferase complementation assay (LCA) in Clone V double stable HEK293 cells
Type: cell-based
RECORDED CONDITIONS: cell density 3 × 10^4 cells per 384-well; 8 concentrations 0.625-30 µM; read-out: IC50
pIC50: −log10 of the molar value.

>  <MOLECULE>
O=[N+]([O-])/C=C/c1ccc2c(c1)OCO2 [MNS, reference compound]

>  <pIC50>
5.01

$$$$

###

Parameter Toxicity Assay % Fluor, tested on Clone V cells, listed per item.

>  <MOLECULE>
CCN(CC)CCNC(=O)c1c(C)[nH]c(/C=C2\C(=O)Nc3ccc(F)cc32)c1C [SUNITINIB]

>  <EXPERIMENTAL TARGET>
Clone V cells

>  <Toxicity Assay % Fluor [%]>
93.10

$$$$
>  <MOLECULE>
COc1cc(Nc2c(C#N)cnc3cc(OCCCN4CCN(C)CC4)c(OC)cc23)c(Cl)cc1Cl [Bosutinib]

>  <EXPERIMENTAL TARGET>
Clone V cells

>  <Toxicity Assay % Fluor [%]>
75.29

$$$$
>  <MOLECULE>
CO[C@H]1C[C@@H]2CC[C@@H](C)[C@@](O)(O2)C(=O)C(=O)N2CCCC[C@H]2C(=O)O[C@H]([C@H](C)C[C@@H]2CC[C@@H](OC(=O)C(C)(CO)CO)[C@H](OC)C2)CC(=O)[C@H](C)/C=C(\C)[C@@H](O)[C@@H](OC)C(=O)[C@H](C)C[C@H](C)/C=C/C=C/C=C/1C [Temsirolimus]

>  <EXPERIMENTAL TARGET>
Clone V cells

>  <Toxicity Assay % Fluor [%]>
93.12

$$$$

###

EXPERIMENTAL TARGET: FGF14:Nav1.6 C-tail complex (Homo sapiens, UniProt Q92915+Q9UQD0)
Construct: polymerase chain reaction (PCR) amplification of the FGF14 open reading frame (nt 1–855); C-terminal fragment of Nav1.6 (amino acids 1763–1976) fused with CD4ΔC-tail (amino acids 1–395); expressed in transfected cells
PROCEDURE SUMMARY: Split-luciferase complementation assay (LCA) in Clone V double stable HEK293 cells
Assay type: cell-based
RECORDED CONDITIONS: 384-well plates; range 0.625 - 25 μM, n=16 per concentration (Supplementary Fig. S1A); read-out: Estimated IC50

>  <MOLECULE>
O=[N+]([O-])/C=C/c1ccc2c(c1)OCO2 [MNS, reference compound]

>  <QUANTITY UNIT>
µM

>  <IC50>
13.3

$$$$
